Tested on: SEM cells
assayNotes: cell viability relative to DMSO control; higher = less cytotoxic
conditionSummary: RPMI 5 mM glucose + 10% FBS; 48 h; 0.00234 µM
class 1 if cell viability is below 80%. class 0 if not; exact matches included in class 0.

sampleSmiles: NCCOc1cc(C(=O)Nc2cc(OCCN)c3ccccc3n2)nc(C(=O)Nc2cc(OCCN)c3ccccc3n2)c1
studySystem: SEM cells
assignedLabel: class 1

sampleSmiles: O=C(CCCN1CCC(O)(c2ccc(Cl)cc2)CC1)c1ccc(F)cc1
studySystem: SEM cells
assignedLabel: class 0

sampleSmiles: CN1CCN(CC1)C2=CC3=C([NH]C(=N3)C/4=C(\N)C5=C(F)C=CC=C5NC4=O)C=C2
studySystem: SEM cells
assignedLabel: class 1

sampleSmiles: CN(CC(=O)N(Cc1ccc(C2CCCCC2)cc1)c1ccc(C(=O)O)c(O)c1)[S+](=O)([O-])c1c(F)c(F)c(F)c(F)c1F
studySystem: SEM cells
assignedLabel: class 0

sampleSmiles: O=C(Nc1ccccc1)Nc1ccc(-c2ccc(C(=O)[C@@H]3CCC[C@H]3C(=O)O)cc2)cc1
studySystem: SEM cells
assignedLabel: class 0

---

Tested on: SEM cells
assayNotes: AUC of viability dose-response curve (% viability x log10 dose units); higher = less sensitive
conditionSummary: HPLM + 10% dialyzed FBS; 48 h
# strict inequality: AUC of viability dose-response curve < 400 yields yes (1), everything else yields no (0)

compound: C[C@@H]1C[C@@H]([C@H](O)CC2CC(=O)NC(=O)C2)C(=O)[C@@H](C)C1
assignedLabel: yes (1)
//
compound: COc1cc(N2CCN(C)CC2)ccc1Nc1nc(N)c(C(=O)c2c(Cl)cccc2Cl)s1
assignedLabel: no (0)
//
compound: CCOc1ccccc1N/N=C1/C(=O)N(c2nc(-c3ccccc3)cs2)N=C1C
assignedLabel: yes (1)
//
compound: CN(C)C(=O)[C@H](O)[C@H](Cc1ccccc1)NC(=O)c1cc2cc(Cl)ccc2[nH]1
assignedLabel: yes (1)
//
compound: Cc1cccc(-c2[nH]c(C(C)(C)C)nc2-c2ccc3nccnc3c2)n1
assignedLabel: no (0)
//
compound: C/C(O)=C(\C#N)C(=O)Nc1ccc(C(F)(F)F)cc1
assignedLabel: no (0)
//
compound: C[C@H](c1ccc(F)cc1CCCC(=O)O)N(c1cc(F)ccc1F)[S+](=O)([O-])c1ccc(Cl)cc1
assignedLabel: no (0)
//
compound: CC(C)[C@H](O)C(=O)N[C@@H](C)C(=O)N[C@@H]1C(=O)N(C)CCc2ccccc21
assignedLabel: no (0)
//
compound: Clc1ccc(C(Cn2ccnc2)OCc2c(Cl)cccc2Cl)c(Cl)c1 (configuration not stated)
assignedLabel: no (0)
//
compound: OC1=CC(=C(C=C1)\C2=C(O)\C(=O)C3=C(O2)C=C(O)C=C3O)O
assignedLabel: no (0)
//
compound: Cc1nnc(C(=O)NC(C)(C)c2nc(C(=O)NCc3ccc(F)cc3)c(O)c(=O)n2C)o1
assignedLabel: no (0)

---

Tested on: SEM cells
assayNotes: cell viability relative to DMSO control; higher = less cytotoxic
conditionSummary: HPLM + 10% dialyzed FBS; 48 h; 0.0632 µM
# cell viability per entry

sampleSmiles: CC(C)(Sc1cc(C(C)(C)C)c(O)c(C(C)(C)C)c1)Sc1cc(C(C)(C)C)c(O)c(C(C)(C)C)c1
cell viability, %: 91.2
--
sampleSmiles: O=C(Nc1cccnc1)N1CCC(Cc2cccc(Oc3ccc(C(F)(F)F)cn3)c2)CC1
cell viability, %: 117
--
sampleSmiles: COc1cc(C[C@@H](CO)[C@H](CO)Cc2ccc(O)c(OC)c2)ccc1O
cell viability, %: 104
--
sampleSmiles: O=C(NOCC1CC1)c1ccc(F)c(F)c1Nc1ccc(I)cc1Cl
cell viability, %: 99.7

---

Test system: P12-Ichikawa
assayNotes: cell viability relative to DMSO control; higher = less cytotoxic
conditionSummary: RPMI 5 mM glucose + 10% dialyzed FBS; 48 h; 15.4 µM
measuredParameter: cell viability (%)

sampleSmiles: CCOc1cc(C(=O)Nc2ccc(Cl)c(-c3nc4ccccc4[nH]3)c2)cc(OCC)c1OCC
unitsLabel: %
result: 81.1
//
sampleSmiles: OC(=O)CNC(=O)\C1=C(/O)C2=CC=CC=C2N(CC3=CC=CC=C3)C1=O
unitsLabel: %
result: 94.5
//
sampleSmiles: C[C@]12CC[C@H]3[C@@H](CC[C@@]45O[C@@H]4C(O)=C(C#N)C[C@]35C)[C@@H]1CC[C@@H]2O
unitsLabel: %
result: 105

---

The reader will find reported cell viability values listed item by item below.
System: P12-Ichikawa
assayNotes: cell viability relative to DMSO control; higher = less cytotoxic
conditionSummary: HPLM + 10% dialyzed FBS; 48 h; 0.00702 µM
measuredParameter: cell viability (%)

compound: CCN1\C=C(C(O)=O)/C(=O)C2=C1C(=C(N3CCNC(C)C3)C(=C2)F)F (stereo not drawn)
unitsLabel: %
result: 111

compound: CN(CC(=O)N(Cc1ccc(C2CCCCC2)cc1)c1ccc(C(=O)O)c(O)c1)[S+](=O)([O-])c1c(F)c(F)c(F)c(F)c1F
unitsLabel: %
result: 94.2

compound: C/C=C(\C)C(=O)N[C@@H](c1ccccc1)[C@@H](O)C(=O)O[C@H]1C[C@@]2(O)[C@@H](OC(=O)c3ccccc3)[C@@H]3[C@]4(OC(C)=O)CO[C@@H]4C[C@H](O)[C@@]3(C)C(=O)[C@H](OC(C)=O)C(=C1C)C2(C)C
unitsLabel: %
result: 25.7

compound: Cc1noc(N[S+](=O)([O-])c2ccc(N)cc2)c1C
unitsLabel: %
result: 104

compound: COc1cc(C[C@@H](CO)[C@H](CO)Cc2ccc(O)c(OC)c2)ccc1O
unitsLabel: %
result: 100

compound: CC(C)(Sc1cc(C(C)(C)C)c(O)c(C(C)(C)C)c1)Sc1cc(C(C)(C)C)c(O)c(C(C)(C)C)c1
unitsLabel: %
result: 90

compound: c1cc2c(cc1[C@H]1OC[C@H]3[C@@H]1CO[C@@H]3c1ccc3c(c1)OCO3)OCO2
unitsLabel: %
result: 118

compound: CCCCN1CCC(CNC(=O)c2c3n(c4ccccc24)CCCO3)CC1
unitsLabel: %
result: 109

compound: CC(C)[C@H](C(=O)Nc1ccc(C(=O)NO)cc1)c1ccccc1
unitsLabel: %
result: 121

compound: CC(=O)OCC(=O)[C@@]1(O)CC[C@H]2[C@@H]3CCC/4=C/C(=O)/C=C\[C@]4(C)[C@H]3[C@@H](O)C[C@]12C
unitsLabel: %
result: 123

compound: c1ccc2c(CN3CCNCC3)cccc2c1
unitsLabel: %
result: 113

compound: CN1CCN(CC1)C2=CC3=C([NH]C(=N3)C/4=C(\N)C5=C(F)C=CC=C5NC4=O)C=C2
unitsLabel: %
result: 109

compound: CC1=CC/2=C(C=C1C)N(C[C@@H](O)[C@@H](O)[C@@H](O)CO)C/3=N/C(=O)NC(=O)C3=N2
unitsLabel: %
result: 117

---

System: P12-Ichikawa
assayNotes: cell viability relative to DMSO control; higher = less cytotoxic
conditionSummary: RPMI 5 mM glucose + 10% dialyzed FBS; 48 h; 0.000781 µM
measuredParameter: cell viability (%)

compound: COc1cccc(OC)c1-c1cc(C(=O)NC2(C(=O)O)C3CC4CC(C3)CC2C4)nn1-c1ccnc2cc(Cl)ccc12 (stereo not given)
studySystem: P12-Ichikawa
measuredParameter: cell viability
result: 113

compound: CN(C)C(=O)[C@H](O)[C@H](Cc1ccccc1)NC(=O)c1cc2cc(Cl)ccc2[nH]1
studySystem: P12-Ichikawa
measuredParameter: cell viability
result: 99.5

compound: CC(=O)N(O)CCCCCNC(=O)CCC(=O)N(O)CCCCCNC(=O)CCC(=O)N(O)CCCCCN.C[S+](=O)([O-])O
studySystem: P12-Ichikawa
measuredParameter: cell viability
result: 97.8

compound: C[C@H](NC(=O)[C@@H](O)c1cc(F)cc(F)c1)C(=O)N[C@@H]1C(=O)N(C)c2ccccc2-c2ccccc21
studySystem: P12-Ichikawa
measuredParameter: cell viability
result: 114

compound: COc1c(N2C[C@@H]3CCCN[C@@H]3C2)c(F)cc2c(=O)c(C(=O)O)cn(C3CC3)c12.Cl.O
studySystem: P12-Ichikawa
measuredParameter: cell viability
result: 98.7

---

System: SEM cells
assayNotes: cell viability relative to DMSO control; higher = less cytotoxic
conditionSummary: RPMI 5 mM glucose + 10% FBS; 48 h; 46.1 µM
The following molecules are listed with their measured cell viability values.
measuredParameter: cell viability (%)

sampleSmiles: CN(C)c1ccc(-c2nc3c(N4CCN(CC(=O)Nc5nccs5)CC4)c(Cl)cnc3[nH]2)cc1
unitsLabel: %
result: 51.2
//
sampleSmiles: COc1cc2cc(c1Cl)N(C)C(=O)C[C@H](OC(=O)C(C)C)[C@]1(C)O[C@@H]1[C@H](C)[C@@H]1C[C@@](O)(NC(=O)O1)[C@H](OC)/C=C/C=C(\C)C2
unitsLabel: %
result: 2.1
//
sampleSmiles: CC[C@H](C)C(=O)O[C@H]1C[C@@H](C)\C=C2\C=C/[C@H](C)[C@H](CC[C@@H]3C[C@@H](O)CC(=O)O3)[C@@H]12
unitsLabel: %
result: 64.5
//
sampleSmiles: COc1ccc(/C=C/C(=O)Nc2ccccc2C(=O)O)cc1OC
unitsLabel: %
result: 104
//
sampleSmiles: Cc1nnc(C(=O)NC(C)(C)c2nc(C(=O)NCc3ccc(F)cc3)c(O)c(=O)n2C)o1
unitsLabel: %
result: 111
//
sampleSmiles: CN1CCN(CC1)C2=CC3=C([NH]C(=N3)C/4=C(\N)C5=C(F)C=CC=C5NC4=O)C=C2
unitsLabel: %
result: 8.79
